Assay: recombinant UMI read abundance after kanamycin selection (control-corrected) (log10(CPM+1)); higher = more efficient recombination; extreme values may be limits of the assay; sequences stand for … in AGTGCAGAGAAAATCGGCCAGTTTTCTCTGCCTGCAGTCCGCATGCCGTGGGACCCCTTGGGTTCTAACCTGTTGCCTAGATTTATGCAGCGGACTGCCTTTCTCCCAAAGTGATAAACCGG…AGGTTGGTTTCACT; site = the 11-nt donor;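 also: IS621 bridge recombinase in Escherichia coli cells against a fixed T5 target plasmid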
Attribute: recombinant UMI read abundance (log10)
Give the figure only, with no unit attached.

Observe how each entry below is paired with its result.
seq string	recombinant UMI read abundance (log10)
TGGCTTCCATGGACCGGTTTTCCCGGTAATCCGTATTTGCT (site TGGCTTCCTAG)	0
ATGCAGACATGGACCGGTTTTCCCGGTAATCCGTATTTGTC (site ATGCAGACTGA)	2.43

// recorded recombinant UMI read abundance (log10) for CCCGGCCCATGGACCGGTTTTCCCGGTAATCCGTATTTGCA (site CCCGGGCCTTG) : 0

// recorded recombinant UMI read abundance (log10) for TATCCTGCATGGACCGGTTTTCCCGGTAATCCGTATTTGAC (site TATCCTGCTGT) : 0

// recorded recombinant UMI read abundance (log10) for CGCCGTACATGGACCGGTTTTCCCGGTAATCCGTATTTGCT (site CGTCGTACTAG) : 0
